- Tested on: 966289-007-R4-J1-PDC complex spheroid viability;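 note: spheroids exposed to the agents for seven days before readout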
- TEST_METHOD_NOTES: Anticancer human tumor 966289-007-R4-J1-PDC patient-derived pancreatic adenocarcinoma cell line growth inhibition [GQUAD]; active = viability on the fitted dose curve at most 10% of control; inactive = the rest
- TEST_CONDITIONS: second compound 1 µM; first compound 0.316 µM
Respond with a class label; see active, inactive

Recorded results for 3 molecules are shown here.
O=C(c1cc(Cc2n[nH]c(=O)c3ccccc23)ccc1F)N1CCN(C(=O)C2CC2)CC1 + Cc1cnc(CNC(=O)c2c(=O)c3ccc(N4CCCN(C)CC4)nc3n3c2sc2ccccc23)cn1 | active
C=CCn1c(=O)c2cnc(Nc3ccc(N4CCN(C)CC4)cc3)nc2n1-c1cccc(C(C)(C)O)n1 + CN(C)c1ccc(Nc2c3ccc(NC(=O)CCN4CCCC4)cc3nc3cc(NC(=O)CCN4CCCC4)ccc23)cc1 | inactive
O=c1[nH]cc(F)c(=O)[nH]1 + CN(C)c1ccc(Nc2c3ccc(NC(=O)CCN4CCCC4)cc3nc3cc(NC(=O)CCN4CCCC4)ccc23)cc1 | inactive

Qu. Test call for this molecule, please: CC(C)(O)C1CCC(Nc2ccc3ncc(-c4cccc(C(F)(F)F)c4)n3n2)CC1 (stereo not given) + Cc1cnc(CNC(=O)c2c(=O)c3ccc(N4CCCN(C)CC4)nc3n3c2sc2ccccc23)cn1
Ans. active

Qu. Record request — test call for COc1ncnc(C2CC2)c1-c1ncc2cnn(Cc3ccc(-c4nc(C(F)(F)F)cn4C(C)C)cc3)c2n1 + Cc1cnc(CNC(=O)c2c(=O)c3ccc(N4CCCN(C)CC4)nc3n3c2sc2ccccc23)cn1
Ans. active
